FYI, the data here is from PubChem BioAssay (NCI).

- Tested on: COLO 205 colon
- Method: NCI tumour cell line growth inhibition, 48 h; in the data active = GI50 below about 0.43 µM; inactive = the rest
Entry note: the call must match one of class 1 = active, class 0 = inactive

Look over these answered cases.
COc1ccc(-c2cc(=O)oc3c4c(ccc23)OCN(Cc2ccc(F)cc2)C4)cc1 ... class 0
CCCCCCn1c(-c2ccc(C(=O)O/N=C(\N)c3ccc4c(c3)OCO4)cc2)nc(-c2ccccc2)c1-c1ccccc1 ... class 0
NC(=O)c1cc(I)ccc1NC(=O)/C=C/c1ccccc1 ... class 1
O=C(Nc1ncc(Cc2cccc(C(F)(F)F)c2)s1)c1ccc2c(c1)OCCO2 ... class 1
NC(N)=Nc1nc2ccccc2o1 ... class 0

Which result was noted for this compound in the test: COC(=O)/C=C/c1cc(OC(C)=O)c2c(c1)C(C(=O)OC)C(c1ccc(OC(C)=O)c(OC(C)=O)c1)O2 (configuration not stated)
class 0

Also need "COc1ccc(CNc2c3ccccc3nc3ccccc23)cc1F" , thanks.
class 0

* * *

Quick reference for TGI among some compounds
- Tested on: SK-MEL-5 melanoma
- Method: NCI tumour cell line growth inhibition, 48 h
Output spec: scalar in µM, unitless text.

Solved cases (6 shown):
CC1=C(C(=O)Nc2ccccc2)C(c2ccc(Cl)c(Cl)c2)C(C(=O)Nc2ccccc2)=C(C)N1 ... 28.7
CC(C)Oc1cccc(N2C(=NCc3c[nH]c4ccccc34)Nc3ccncc3S2(=O)=O)c1 ... 27.7
O=C(CNc1ccc(Cl)cc1Cl)Nn1c(-c2ccccc2)nc2ccccc2c1=O ... 18.5
CNCCCNc1ccnc2cc(Cl)ccc12 ... 31.6
CO/N=C(/C(=O)OC)c1ccccc1COc1ccccc1C(F)(F)F ... 25.8
N#CC(I)CS(=O)(=O)c1ccccc1 (configuration not stated) ... 31.9

// next entry
Name the recorded TGI for "OCCCc1ccc2c(c1)[C@H](CO)[C@@H](c1ccc(O)cc1)O2" .
32.7

* * *

- Test system: SR leukemia
- Method: NCI tumour cell line growth inhibition, 48 h
Measured parameter: TGI

Example entries and their recorded answers appear below.
CCCN(CCC)c1c([N+](=O)[O-])cc(C(=O)N(CC)CC)cc1[N+](=O)[O-] ... 55.2 µM
CNc1[nH]c(=S)nc2sc3c(c12)CCCC3 ... > 75 µM
Cc1cc(C)nc(NC(=S)Nc2ccc([N+](=O)[O-])cc2)c1 ... > 100 µM
CCCCCCCCc1cc2c(O)c(c1)Cc1cc(CCCCCCCC)cc(c1O)Cc1cc(CCCCCCCC)cc(c1O)Cc1cc(CCCCCCCC)cc(c1O)Cc1cc(CCCCCCCC)cc(c1O)Cc1cc(CCCCCCCC)cc(c1O)C2 ... > 100 µM

May I ask what TGI has been recorded for "CCOc1ccc(OCC(=O)O)c2c1CCCC2=O" ?
> 100 µM

Can you check "CN(C)Cc1cc(C(=O)/C=C/c2ccc([N+](=O)[O-])cc2)cc(CN(C)C)c1O" next?
22.2 µM

* * *

- Tested on: LXFL 529 NSCLC
- Method: NCI tumour cell line growth inhibition, 48 h
Listed next: entries and their corresponding TGI.

Answered examples (5):
CCCCCCCCCCCC[N+]12CC[N+](CCN)(CC1)CC2 ... > 100 µM
CC[C@@H]1NC(C(=O)OC)Cc2c1[nH]c1ccccc21 (some centres not stated) ... > 100 µM
COc1ccc2c(=O)oc3c(OC)cc(CCN(C)C)c4c(=O)oc1c2c34 ... 26 µM
Cc1cc(C)nc(NS(=O)(=O)c2ccc(Nc3c4ccccc4nc4c(C(=O)N5CCN(CCO)CC5)cccc34)cc2)n1 ... > 100 µM
O=C1C/C(Br)=C\c2ccccc2-c2ccccc21 ... 3.5 µM

So what's the measured TGI for this one? "CC12c3ccccc3C(OC=O)(c3ccccc31)C1(C)c3ccccc3C2(OC=O)c2ccccc21"
> 100 µM

Subsequent entry: CCOc1ccc(NC(=O)CC2SC(=Nc3ccc(C)cc3C)NC2=O)cc1 (configuration not stated)
> 100 µM

What about "C/C(=N\NC(N)=O)c1sc(-c2nc(C)c(/C(C)=N/NC(N)=O)s2)nc1C" ?
> 100 µM

Quick one: "FC(F)(F)c1ccc2nc(NCc3ccccc3)c(-c3ccccc3)nc2c1"
> 100 µM

Now the same for "Oc1oc(C(=C2N=c3ccccc3=N2)c2ccc(Cl)cc2)c(O)c1-c1ccc(Cl)cc1"
12.2 µM

Next molecule: "COc1ccc(/C=C\c2cc(OC)c(OC)c(OC)c2)cc1OCC(=O)O"
> 100 µM

Follow-up entry: "CCOc1ccc(OCC(=O)O)c2c1CCCC2=O"
> 100 µM

Try this molecule next: "CCCCCCCCc1cc2c(O)c(c1)Cc1cc(CCCCCCCC)cc(c1O)Cc1cc(CCCCCCCC)cc(c1O)Cc1cc(CCCCCCCC)cc(c1O)Cc1cc(CCCCCCCC)cc(c1O)Cc1cc(CCCCCCCC)cc(c1O)C2"
> 100 µM

Then what about the molecule "CC1=C(C(=O)Nc2ccccc2)C(c2ccc(Cl)c(Cl)c2)C(C(=O)Nc2ccccc2)=C(C)N1" ?
25.6 µM

Now try "COc1cc(C[P+](c2ccccc2)(c2ccccc2)c2ccccc2)cc(OC)c1OC" .
> 100 µM

Follow-up entry: "Cc1cc2c(cc1C)[n+](=O)cc(C(=O)C/C(=N/NC(=S)NN)C(=O)Nc1cccc(C(F)(F)F)c1)n2[O-]"
> 100 µM

Okay, and "O=Cc1cc2c(cc1-c1cc3c(cc1C=O)OCO3)OCO2" ?
> 100 µM

* * *

- System: SN12C renal
- Method: NCI tumour cell line growth inhibition, 48 h
Measured parameter: TGI

CC(C)(CO)CNc1nc(N)nc(Cl)c1/C=N/O ... > 100 µM
OC(C#CCN1CCCC1)(c1ccccc1)c1ccccc1Cl (centres undefined) ... > 100 µM
COc1cc(C[P+](c2ccccc2)(c2ccccc2)c2ccccc2)cc(OC)c1OC ... > 100 µM
C=C(C)[C@@H]1CC[C@]2(CN)CC[C@]3(C)[C@H](CC[C@@H]4[C@@]5(C)CCCNC(C)(C)[C@@H]5CC[C@]43C)[C@@H]12 ... 3.31 µM

Any idea what TGI was measured for "O=C(OCC(Cl)(Cl)Cl)N1CC[C@H](C2CCCCC2)C1" ?
> 100 µM

And the next one, CC(C)C1=CC23CCC4C(C)(C(=O)O)CCCC4(C)C2CC1C1C(=O)N(CCCCCCN2C(=O)C4C5CC6C7(C)CCCC(C)(C(=O)O)C7CCC6(C=C5C(C)C)C4C2=O)C(=O)C13 (centres undefined) ?
32.4 µM

Okay, and "C[C@@H]1CC[C@H]2[C@H]1[C@H]1[C@@H](CC[C@]2(C)N=C=S)C1(C)C" ?
44.7 µM

* * *

- Tested on: OVCAR-4 ovarian
- Method: NCI tumour cell line growth inhibition, 48 h; in the data active means GI50 below about 0.43 µM; inactive means the rest
Please answer using one outcome listed in 1 (active), -1 (inactive)

Worked set:
COc1ccc(CNc2c3ccccc3nc3ccccc23)cc1F ... -1
NC(N)=Nc1nc2ccccc2o1 ... -1
CO[C@@H]1CC[C@]2(C)OC[C@H](C)[C@@H]3C[C@@H](C)[C@@H](OC(C)=O)[C@@H]4[C@H]3[C@@H]2O[C@H]4C[C@@]1(C)O ... -1
COC(=O)/C=C/c1cc(OC(C)=O)c2c(c1)C(C(=O)OC)C(c1ccc(OC(C)=O)c(OC(C)=O)c1)O2 (stereo unspecified) ... 1
COc1cc(/C=C2\CCCCC3=C2N=C2SC(C)=CN2C3c2cc(OC)c(OC)c(OC)c2)cc(OC)c1OC (stereo unspecified) ... -1

Identify the outcome logged in this assay for the compound shown: "NC(=S)N/N=C/c1ncccc1O"
-1

// repeat for "Cc1cccc(NC2=C(Cl)C(=O)c3nc(C)ccc3C2=O)c1" and report
-1

Same again, this time with "O=C(Nc1nc(-c2c[nH]c3ccccc23)cs1)c1n[nH]c(=O)c2ccccc12"
-1

Likewise for "CCN(Cc1c(F)cccc1OC)c1ccc(CO)c(Cl)c1" ?
1

Request: CC[C@]1(O)C[C@H]2CN(CCc3c([nH]c4ccccc34)C(C(=O)OC)(c3cc4c(cc3OC)N(C)[C@H]3[C@@](O)(C(=O)OC)[C@H](OC(C)=O)[C@]5(CC)[C@@H]6C[C@@H]6CN6CC[C@]43[C@@H]65)C2)C1 (stereo partly specified)
1

Subsequent entry: "COc1ccc(Cl)cc1NC(=O)c1ccc(NC2=C(Cl)C(=O)N(Cc3ccccc3)C2=O)cc1"
-1

* * *

- System: MDA-MB-435
- Method: NCI tumour cell line growth inhibition, 48 h
Measured parameter: TGI

Examples with answers:
C=C(C)CNCCN ... > 100 µM
COc1cc(/C=C2\CCCCC3=C2N=C2SC(C)=CN2C3c2cc(OC)c(OC)c(OC)c2)cc(OC)c1OC (stereo unspecified) ... > 100 µM
CCOC(=O)c1c2cccccc-2nc1Nc1cccc2c(C)ccnc12 ... > 10 µM

Form field: reported TGI of "O=C(Nc1nc(-c2c[nH]c3ccccc23)cs1)c1n[nH]c(=O)c2ccccc12"
> 100 µM

Entry "CO[C@@H]1CC[C@]2(C)OC[C@H](C)[C@@H]3C[C@@H](C)[C@@H](OC(C)=O)[C@@H]4[C@H]3[C@@H]2O[C@H]4C[C@@]1(C)O" please
> 100 µM
